Numbers sourced from PubChem BioAssay (EPA / NIEHS).

Read-out: Tissue Factor, F3 (gene 2152)
Assay: BSK_CASM3C_TissueFactor: BioMAP Diversity Plus: CASM3C Assay for Tissue Factor Biomarker Activity (AID 2283052);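 also: cell surface tissue factor protein level read by ELISA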
Conditions: primary human coronary artery smooth muscle cells; actives raise or lower the signal
The source made the active and inactive calls. The calls were made as follows: active = hit-call score of the fitted dose curve at least 0.9, where 1 is the maximum; inactive = score below 0.9.
Response enum: 1 = active, -1 = inactive

A selection of reference data follows.
COMPOUND: Nc1ccc(-c2ccc(N)c(N)c2)cc1N
CLASS ASSIGNMENT: 1
--
COMPOUND: O=C(CCl)c1ccccc1
CLASS ASSIGNMENT: -1

## Input Write down the call the test reported for this compound. Item: O=P1(NCCCl)OCCCN1CCCl (stereo not given)
## Output -1

## Input Write down the call the test reported for this compound. Item: CC(C)(C)C(=O)CCl
## Output -1

## Input Write down the call the test reported for this compound. Item: COc1ccc(CO)cc1
## Output -1

## Input Write down the call the test reported for this compound. Item: O=S(=O)(c1ccccc1)c1ccccc1
## Output -1

## Input Write down the call the test reported for this compound. Item: C=CCN(CC=C)C(=O)C(Cl)Cl
## Output -1

## Input Write down the call the test reported for this compound. Item: COCC(=O)N(c1c(C)cccc1C)N1CCOC1=O
## Output -1

## Input Write down the call the test reported for this compound. Item: COC(C)(C)CCC[C@H](C)C/C=C/C(C)=C/C(=O)OC(C)C
## Output 1

## Input Write down the call the test reported for this compound. Item: O=[N+]([O-])C=Cc1ccccc1
## Output 1

## Input Write down the call the test reported for this compound. Item: Oc1cc(Cl)ccc1Cl
## Output -1

----------
Read-out: Interleukin-8 (IL8), CXCL8 (gene 3576)
Assay: BSK_SAg_IL8: BioMAP Diversity Plus: SAg Assay for Interleukin-8 (IL8) Biomarker Activity (AID 2283094)
Conditions: primary human HUVEC with PBMC; actives raise or lower the signal
Active and inactive are the calls of the source. How the source made its calls: active means hit-call score of the fitted dose curve at least 0.9, where 1 is the maximum; inactive means score below 0.9.
Response enum: active, inactive

A selection of reference data follows.
MOLECULE: Cc1ccc(OP(=O)(Oc2ccc(C)cc2)Oc2ccc(C)cc2)cc1 (tested in a mixture with another compound)
CLASS ASSIGNMENT: active
//
MOLECULE: Clc1ccc(-c2ccccc2)cc1
CLASS ASSIGNMENT: inactive
//
MOLECULE: CC(C)(C)C(=O)CCl
CLASS ASSIGNMENT: inactive
//
MOLECULE: Oc1cc(Cl)ccc1Cl
CLASS ASSIGNMENT: inactive
//
MOLECULE: O=[N+]([O-])c1ccc(Cl)cc1
CLASS ASSIGNMENT: inactive
//
MOLECULE: CCC(C)c1cc([N+](=O)[O-])cc([N+](=O)[O-])c1OC(=O)C=C(C)C (stereo unspecified)
CLASS ASSIGNMENT: inactive

Would you kindly look at the next entry?
## Input Write down the call the test reported for this molecule. Item: O=c1[nH]c(Cl)c(Cl)cc1Cl
## Output inactive

----------
Biological target: Cellular tumor antigen p53 (Homo sapiens) (UniProt P04637)
Sequence (P04637 whole entry, looked up): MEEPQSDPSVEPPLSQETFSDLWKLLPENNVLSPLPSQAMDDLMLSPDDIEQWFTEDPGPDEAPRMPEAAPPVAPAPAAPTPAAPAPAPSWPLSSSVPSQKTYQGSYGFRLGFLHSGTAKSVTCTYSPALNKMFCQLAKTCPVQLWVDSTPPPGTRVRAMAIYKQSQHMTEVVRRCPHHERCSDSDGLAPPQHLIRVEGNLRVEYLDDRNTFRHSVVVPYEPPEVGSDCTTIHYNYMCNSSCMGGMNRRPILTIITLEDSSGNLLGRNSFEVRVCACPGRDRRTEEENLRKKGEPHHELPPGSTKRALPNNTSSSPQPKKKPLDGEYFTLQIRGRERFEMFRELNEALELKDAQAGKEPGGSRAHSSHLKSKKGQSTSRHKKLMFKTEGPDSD
Assay: TOX21_p53_BLA_p5_ratio: Tox21 HCT-116 p53 Agonism Beta-lactamase Assay, Ratio, Phase 5 (AID 2283599)
Results filed as inconclusive are left out. Active and inactive are the calls of the source. The calls were made as follows: active = hit-call score of the fitted dose curve at least 0.9, where 1 is the maximum; inconclusive = response in the unintended direction; inactive = score below 0.9.
Response enum: T for active, F for inactive

A selection of reference data follows.
COMPOUND: C=C(C)CCl
CLASS ASSIGNMENT: F
--
COMPOUND: O=C(Cl)/C=C/C(=O)Cl
CLASS ASSIGNMENT: F
--
COMPOUND: O=S1(=O)OCCO1
CLASS ASSIGNMENT: F
--
COMPOUND: Clc1ccc([C@@H]2C[C@H]3CC[C@@H]2N3)cn1
CLASS ASSIGNMENT: F
--
COMPOUND: CC(Cl)(Cl)[N+](=O)[O-]
CLASS ASSIGNMENT: F
--
COMPOUND: CCC[N+](=O)[O-]
CLASS ASSIGNMENT: F

## Input Write down the call the test reported for this compound. Item: O=C(N[C@@H]1N=C(c2ccccc2F)c2cccc3c2N(CC3)C1=O)c1cc2ccccc2[nH]1
## Output F

## Input Write down the call the test reported for this compound. Item: O=C(O)CCCO
## Output F

## Input Write down the call the test reported for this compound. Item: NC(=O)C(Cl)Cl
## Output F

## Input Write down the call the test reported for this compound. Item: N#CC(c1ccccc1)c1ccccc1
## Output F
